# System: alpha-smooth muscle actin (α-SMA)
# METHOD DESCRIPTION: Inhibition of TGF-β induced expression of alpha-smooth muscle actin (α-SMA) in CFSC cells, western blot
# Type: cell-based
# CONDITION DETAILS: compound at 10 μM, TGF-β (10 ng/mL), 24 hours, decrease in band intensity vs TGF-β only
MEASUREMENT NAME: inhibition at 10 µM

MOLECULE | DATA VALUE
COc1ccc2ccccc2c1/C=C1/C(C)=C(CC(=O)O)c2cc(F)ccc21 [Compound B36] | > 90%
CC1=C(CC(=O)O)c2cc(F)ccc2/C1=C\c1cccc(Oc2cccc(C(F)(F)F)c2)c1 [Compound D27] | > 90%
CC1=C(CC(=O)O)c2cc(F)ccc2/C1=C\c1cccc(Oc2ccc(Cl)cc2)c1 [Compound D25] | > 90%
CC1=C(CC(=O)O)c2cc(F)ccc2/C1=C\c1ccc(N(C)c2ccccc2)cc1 [Compound A29] | 70 to 80%
CC1=C(CCc2nnn[nH]2)c2ccccc2/C1=C\c1ccc(Oc2cccc(C)c2)cc1 [Compound A46] | > 90%
CC1=C(CCc2nnn[nH]2)c2ccccc2/C1=C\c1ccc(Oc2ccc(Br)cc2)cc1 [Compound A42] | 70 to 80%
CC1=C(CC(=O)O)c2cc(F)cc(F)c2/C1=C/c1ccc(Oc2ccc(F)cc2)cc1 [Compound E4] | > 90%
CC1=C(CC(=O)O)c2cc(F)ccc2/C1=C\c1ccc(C(C)(C)C)cc1 [Compound B10] | 70 to 80%
CC1=C(CC(=O)NO)c2cc(F)ccc2/C1=C\c1ccc(N(CCO)c2ccc(F)cc2)cc1 [Compound A85] | > 90%
CC1=C(CC(=O)O)c2cc(F)ccc2/C1=C\c1ccc(Oc2cccc(C(F)(F)F)c2)cc1 [Compound A9] | > 90%
CC1=C(CC(=O)O)c2cc(F)ccc2/C1=C\c1ccc(Oc2ccc(C(F)(F)F)cc2)cc1 [Compound D7] | > 90%
COc1ccc2c(c1)C(CC(=O)O)=C(C)/C2=C/c1ccc(Oc2ccccc2)cc1 [Compound D11] | > 90%
CC1=C(CCc2nnn[nH]2)c2ccccc2/C1=C\c1ccc(Oc2ccc3ccccc3c2)cc1 [Compound A51] | > 90%
C1=C(Cc2nnn[nH]2)c2ccccc2/C1=C/c1cccc(Oc2ccccc2)c1 [Compound A54] | > 90%
CC1=C(CC(=O)O)c2cc(F)ccc2/C1=C\c1ccc(Oc2cnc(F)c(C)c2)cc1 [Compound A21] | 80 to 90%
CC1=C(CC(=O)O)c2cc(F)ccc2/C1=C\c1ccc(Oc2ccc(F)cc2F)cc1 [Compound A16] | > 90%
CC1=C(CC(=O)O)c2cc(F)ccc2/C1=C\c1ccc(-n2cccc2)cc1 [Compound A60] | < 50%
CC1=C(Cc2nnn[nH]2)c2ccccc2/C1=C\c1cccc(Oc2ccccc2)c1 [Compound A39] | > 90%
CC1=C(CC(=O)N(C)O)c2cc(F)ccc2/C1=C\c1ccc(Oc2ccc(F)cc2)cc1 [Compound C2] | > 90%
CC1=C(CC(=O)O)c2cc(F)ccc2/C1=C\c1ccc(Oc2cccc(C)c2)cc1 [Compound A7] | > 90%
O=C(O)CC1=C(Cc2ccccc2)/C(=C/c2ccc(Oc3ccc(F)cc3)cc2)c2ccc(F)cc21 [Compound D9] | < 50%
COc1ccc2c(c1)C(CC(=O)O)=C(C)/C2=C/c1ccc(Oc2ccc(F)cc2)cc1 [Compound D10] | > 90%
CC1=C(CC(=O)O)c2cc(F)cc(F)c2/C1=C/c1cccc(Oc2ccccc2)c1 [Compound E6] | > 90%
CC(C)CC1=C(CC(=O)O)c2cc(F)ccc2/C1=C\c1ccc(Oc2ccc(F)cc2)cc1 [Compound D8] | > 90%
CC1=C(CC(=O)O)c2cc(F)ccc2/C1=C\c1ccc(Oc2ccc(F)cc2)c(C)c1 [Compound D13] | < 50%
CC1=C(CCC(=O)O)c2ccccc2/C1=C\c1ccc(Oc2ccc(F)cc2)cc1 [Compound A19] | > 90%
CC1=C(CC(=O)NO)c2cc(F)ccc2/C1=C\c1ccc(Oc2ccc(C(C)C)cc2)cc1 [Compound D1] | > 90%
CC1=C(CC(=O)O)c2cc(F)ccc2/C1=C\c1ccc(N(c2ccc(F)cc2)c2ccc(C=O)cc2)cc1 [Compound A35] | > 90%
CC1=C(CC(=O)O)c2cc(F)ccc2/C1=C\c1ccc(Oc2ccc(F)cc2)cc1 [Compound A11] | 80 to 90%
CC1=C(CC(=O)O)c2c(ccc(F)c2F)/C1=C\c1ccc(Oc2ccc(F)cc2)cc1 [Compound A68] | > 90%
CC1=C(CC(=O)O)c2cc(F)ccc2/C1=C\c1ccc(C)c2ccccc12 [Compound B35] | > 90%
CC1=C(CC(N)=O)c2cc(F)ccc2/C1=C\c1ccc(Oc2ccc(F)cc2)cc1 [Compound A25] | 70 to 80%
